test system: rabbit skeletal myofibrils (fast skeletal myofibrils); assay: Activation of fast skeletal myofibrils (PUMA assay, PK/LDH-coupled ATPase at pCa25); type: biochemical; details: AC1.4 determined according to the procedure of Example 39; reported as class symbols

structure.smiles	Mean AC1.4
CC(C)(CNc1ccc(-c2cc(F)cc(C(N)=O)c2)nn1)c1ccc(F)cc1	B (B=1-10 uM)
CCOC(=O)C1(NC(=O)c2ccc(NCC(C)(C)c3ccc(F)cc3)nn2)CC1	D (D=>20 uM)
CC(C)(CNc1ccc(-c2cc(C(N)=O)c3[nH]ncc3c2)nn1)c1ccc(F)cc1	B (B=1-10 uM)
C=Cc1n[nH]c2ccc(-c3ccc(NCC(C)(C)c4ccc(F)cc4)nn3)cc12	A (A=<1 uM)
COc1ccc(-c2ccc(NCC(C)(C)c3ccc(F)cc3)nn2)nc1	B (B=1-10 uM)
CC(C)(CNc1ccc(C#N)nn1)c1ccc(F)cc1	D (D=>20 uM)
NC(=O)c1cc(C(N)=O)cc(-c2ccc(NCC3(c4ncccc4F)CCC3)nn2)c1	B (B=1-10 uM)
NC(=O)c1cccc(-c2ccc(NCC3(C(N)=O)CCC3)nn2)c1	D (D=>20 uM)
NC(=O)c1cccc(-c2ccc(N[C@@H]3C[C@H]3c3ccccc3)nn2)c1	D (D=>20 uM)
CC(C)(CNc1ccc(-c2ccc3c(N)noc3c2)nn1)c1ccc(F)cc1	A (A=<1 uM)
COC(=O)NCc1ccc(NCC(C)(C)c2ccc(F)cc2)nn1	D (D=>20 uM)

* * *

test system: rabbit skeletal myofibrils (fast skeletal myofibrils); experiment: Activation of fast skeletal myofibrils (PUMA assay, PK/LDH-coupled ATPase at pCa25); type: biochemical; conditions: median AC1.4 class, procedure of Example 39

structure.smiles	Mean AC1.4
NC(=O)Nc1n[nH]c2ccc(-c3ccc(NCC4(c5ncccc5F)CCC4)nn3)cc12	A (A=<1 uM)
O=C(O)c1ccc(F)c(-c2ccc(NC[C@]3(c4ncccc4F)C[C@H](F)C3)nn2)c1	A (A=<1 uM)

* * *

tested on: rabbit skeletal myofibrils (fast skeletal myofibrils); experiment: Activation of fast skeletal myofibrils (PUMA assay, PK/LDH-coupled ATPase at pCa25); assay type: biochemical; conditions: AC1.4 determined according to the procedure of Example 39; reported as class symbols

compound	Mean AC1.4
CC(C)(CNc1ccc(C(=O)N2CCCC2C(N)=O)nn1)c1ccc(F)cc1 (centres unmarked)	D (D=>20 uM)
N=C(N)Nc1cccc(-c2ccc(NCC3(c4ncccc4F)CCC3)nn2)c1	B (B=1-10 uM)
N=C(N)Nc1n[nH]c2ccc(-c3ccc(NCC4(c5ncccc5F)CCC4)nn3)cc12	B (B=1-10 uM)
Nc1n[nH]c2ccc(-c3ccc(NCC(F)(F)c4ccc(F)cc4)nn3)cc12	B (B=1-10 uM)
O=C1Cc2c(cccc2-c2ccc(NCC3(c4ncccc4F)CCC3)nn2)N1	B (B=1-10 uM)
CN(C)Cc1ccc(C(C)(C)CNc2ccc(-c3ccc4[nH]nc(N)c4c3)nn2)cc1	D (D=>20 uM)
CC(C)(CNc1ccc(-c2ccc3[nH]nc(N)c3c2)nn1)c1ccc(C(N)=O)cc1	D (D=>20 uM)
CC(C)(C)OC(=O)N(CC(C)(C)c1ncccc1F)c1ccc(-c2ccc3[nH]c(O)nc3c2)nn1	D (D=>20 uM)
CC(C)(CNc1ccc(-c2cccc(C(N)=O)n2)nn1)c1ccc(F)cc1	B (B=1-10 uM)
CC(C)(C)OC(=O)N1CCN(C(=O)c2ccc(NCC(C)(C)c3ccc(F)cc3)nn2)CC1	D (D=>20 uM)
CS(=O)(=O)N1CC(CNc2ccc(-c3cccc(C(N)=O)c3)nn2)(c2ncccc2F)C1	D (D=>20 uM)
CC(C)(CNc1ccc(-c2ccc3nc(N)[nH]c3c2)nn1)c1ccc(F)cc1	A (A=<1 uM)
Cc1cc(-c2cccc(C#N)c2)nnc1NCC(C)(C)c1ccc(F)cc1	C (C=10-20 uM)
COc1ccc(C2(CNc3ccc(-c4ccc5cn[nH]c5c4)nn3)CCC2)nc1	B (B=1-10 uM)
CC(C)(CNc1ccc(C(=O)O)nn1)c1ccc(F)cc1	D (D=>20 uM)
C=Cc1ccc(NCC(C)(C)c2ccc(F)cc2)nn1	B (B=1-10 uM)
O=C(O)c1cc(C(=O)O)cc(-c2ccc(NCC3(c4ncccc4F)CCC3)nn2)c1	D (D=>20 uM)
Oc1cccc(C2(CNc3ccc(-c4ccc5cn[nH]c5c4)nn3)CCC2)n1	D (D=>20 uM)
CC(C)(CNc1ccc(-c2ccc3[nH]nc(N)c3c2)nn1)c1ccc(F)cc1	A (A=<1 uM)
CC(C)(CNc1ccc(-c2cccc(C(N)=O)c2)nn1)OCc1ccccc1	D (D=>20 uM)
CCNc1n[nH]c2ccc(-c3ccc(NCC4(c5ccccn5)CCC4)nn3)cc12	A (A=<1 uM)
COc1ncc(-c2ccc(NCC(C)(C)c3ccc(F)cc3)nn2)cn1	C (C=10-20 uM)
CN1CCN(C(=O)c2ccc(NCC(C)(C)c3ccc(F)cc3)nn2)CC1	D (D=>20 uM)
CC(C)(CNc1ccc(-c2ccc3[nH]nc(NCC(F)(F)F)c3c2)nn1)c1ccc(F)cc1	A (A=<1 uM)
c1ccc(C2(CNc3ccc(-c4ccc5cn[nH]c5c4)nn3)CCC2)nc1	A (A=<1 uM)
CC(C)(CNc1ccc(-c2ccc3[nH]nc(C#N)c3c2)nn1)c1ccc(F)cc1	D (D=>20 uM)
CC(C)(CNc1ccc(-c2ccc(C(N)=O)cc2)nn1)c1ccc(F)cc1	B (B=1-10 uM)
CC(C)(CNc1ccc(-c2ccc3[nH]nc(N)c3c2)nn1)c1ccccc1CO	B (B=1-10 uM)
CC(C)(CNc1ccc(-c2ccc(CN)nc2)nn1)c1ccc(F)cc1	B (B=1-10 uM)

* * *

Tested on: rabbit skeletal myofibrils (fast skeletal myofibrils)
Assay: Activation of fast skeletal myofibrils (PUMA assay, PK/LDH-coupled ATPase at pCa25)
Type: biochemical
Settings: median AC1.4 reported as class; procedure of Example 39
Description: Preparation of Fast Skeletal Myofibrils. […] Fast fiber activators were identified by measuring the enzymatic activity of muscle myofibril preparations using the proprietary PUMA™ (see, e.g., U.S. Pat. Nos. 6,410,254, 6,743,599, 7,202,051, and 7,378,254) assay system. […] This assay regenerates myosin-produced ADP into ATP by oxidizing NADH, producing an absorbance change at 340 nm. […]

structure.smiles	experimental.target	Mean AC1.4
CNC(=O)c1ccc(O)c(-c2ccc(NCC3(c4ncccc4F)CCC3)nn2)c1	rabbit skeletal myofibrils (fast skeletal myofibrils)	B (B=1-10 uM)
NC(=O)Cc1cnc(-c2ccc(NCC3(c4ncccc4Cl)CCC3)nn2)s1	rabbit skeletal myofibrils (fast skeletal myofibrils)	A (A=<1 uM)
CC(=O)N1CCN(Cc2cnc(-c3ccc(NCC4(c5ncccc5F)CCC4)nn3)s2)CC1	rabbit skeletal myofibrils (fast skeletal myofibrils)	D (D=>20 uM)
CCOC(=O)Cc1csc(-c2ccc(NCC3(c4ncccc4F)CCC3)nn2)n1	rabbit skeletal myofibrils (fast skeletal myofibrils)	C (C=10-20 uM)
O=C(NC1CC1)c1ccc(F)c(-c2ccc(NC[C@]3(c4ncccc4F)C[C@H](F)C3)nn2)c1	rabbit skeletal myofibrils (fast skeletal myofibrils)	A (A=<1 uM)
CC(C)(Nc1ccc(-c2ncc(CC(N)=O)s2)nn1)c1ncccc1Cl	rabbit skeletal myofibrils (fast skeletal myofibrils)	D (D=>20 uM)
O=C(NC1CNC1)c1cccc(-c2ccc(NC[C@]3(c4ncccc4F)C[C@H](F)C3)nn2)c1	rabbit skeletal myofibrils (fast skeletal myofibrils)	B (B=1-10 uM)
O=C(O)c1cccc(-c2ccc(NC[C@]3(c4ncccc4F)C[C@H](F)C3)nn2)c1O	rabbit skeletal myofibrils (fast skeletal myofibrils)	C (C=10-20 uM)
CN(Cc1cnc(-c2ccc(NCC3(c4ncccc4F)CCC3)nn2)s1)C(=O)C(C)(C)N	rabbit skeletal myofibrils (fast skeletal myofibrils)	A (A=<1 uM)
Cn1ccc(NC(=O)c2ccc(NCC3(c4ncccc4F)CCC3)nn2)n1	rabbit skeletal myofibrils (fast skeletal myofibrils)	C (C=10-20 uM)

* * *

system: rabbit skeletal myofibrils (fast skeletal myofibrils); test: Activation of fast skeletal myofibrils (PUMA assay, PK/LDH-coupled ATPase at pCa25); type: biochemical; conditions: median AC1.4 class, procedure of Example 39

compound	Mean AC1.4
Nc1ncc(-c2ccc(NC3(c4ccc(F)cc4)CCC3)nn2)cn1	B (B=1-10 uM)
CNc1n[nH]c2ccc(-c3ccc(NC[C@]4(c5ncccc5F)C[C@H](F)C4)nn3)cc12	A (A=<1 uM)
OC(c1cnc(-c2ccc(NCC3(c4ncccc4F)CCC3)nn2)s1)C(F)F (stereo not drawn)	B (B=1-10 uM)
CC(C)(CNc1ccc(-c2ccc3[nH]nc(NCCOCc4ccccc4)c3c2)nn1)c1ccc(F)cc1	A (A=<1 uM)
COC(=O)c1ncccc1-c1ccc(NCC2(c3ncccc3F)CCC2)nn1	C (C=10-20 uM)
CC(C)(C)[S+]([O-])NCc1cnc(-c2ccc(NCC3(c4ncccc4F)CCC3)nn2)s1 (stereo not drawn)	B (B=1-10 uM)
CN(C)c1n[nH]c2ccc(-c3ccc(NCC(C)(C)c4ccc(F)cc4)nn3)cc12	B (B=1-10 uM)
FC(F)(CNc1ccc(-c2ccc3cn[nH]c3c2)nn1)c1ccccn1	D (D=>20 uM)
NC(=O)c1ccc(F)c(-c2ccc(NC3(c4ccc(OC(F)F)cn4)CCC3)nn2)c1	D (D=>20 uM)
Cn1cc(-c2ccc(NCC3(c4ncccc4F)CCC3)nn2)nc1C(N)=O	D (D=>20 uM)
Cc1nc(-c2ccc(NCC3(c4ncccc4F)CCC3)nn2)sc1C(N)=O	B (B=1-10 uM)
Fc1ccc(C2(Nc3ccc(-c4ccncc4F)nn3)CCC2)cc1	B (B=1-10 uM)
CS(=O)(=O)Nc1cccc(-c2ccc(NC3(c4ccc(F)cc4)CCC3)nn2)c1	A (A=<1 uM)
O=C(NCc1cnc(-c2ccc(NCC3(c4ncccc4F)CCC3)nn2)s1)[C@H]1CCCN1	A (A=<1 uM)
O=C1Cc2cc(-c3ccc(NCC4(c5ncccc5F)CCC4)nn3)ccc2N1	B (B=1-10 uM)
CNC(=O)Nc1ccc(-c2ccc(NCC3(c4ncccc4F)CCC3)nn2)cc1	A (A=<1 uM)
NC(=O)Nc1ccc(-c2ccc(NC3(c4ncccc4F)CCC3)nn2)c(F)c1	B (B=1-10 uM)
COC(=O)c1cn(C)c(-c2ccc(NCC3(c4ncccc4F)CCC3)nn2)n1	D (D=>20 uM)
NC(=O)c1ccc(-c2ccc(NC3(c4ncccc4F)CCC3)nn2)s1	B (B=1-10 uM)
NC(=O)c1cccc(-c2ccc(NC3(c4ccccn4)CCC3)nn2)c1	D (D=>20 uM)
NC(=O)c1nnc(-c2ccc(NCC3(c4ncccc4F)CCC3)nn2)o1	C (C=10-20 uM)
O=C(NCc1cnc(-c2ccc(NCC3(c4ncccc4F)CCC3)nn2)s1)C1(NCc2ccccc2)COC1	A (A=<1 uM)
CC(C)(O)C(N)c1ccc(-c2ccc(NCC3(c4ncccc4F)CCC3)nn2)cc1 (stereo not drawn)	D (D=>20 uM)
NC(=O)c1coc(-c2ccc(NCC3(c4ncccc4F)CCC3)nn2)n1	D (D=>20 uM)
O=C(N[C@H]1CCNC1)c1ccc(F)c(-c2ccc(NC[C@]3(c4ncccc4F)C[C@H](F)C3)nn2)c1	B (B=1-10 uM)
O=c1[nH][nH]c2ccc(-c3ccc(NCC4(c5ncccc5F)CCC4)nn3)cc12	A (A=<1 uM)
NC(=O)CNCc1cnc(-c2ccc(NCC3(c4ncccc4F)CCC3)nn2)s1	B (B=1-10 uM)
Fc1cccnc1C1(Nc2ccc(-c3ccc4[nH]ncc4c3)nn2)CCC1	B (B=1-10 uM)
NC(=O)c1ccc(F)c(-c2ccc(NC3(c4cccc(OC(F)F)n4)CCC3)nn2)c1	A (A=<1 uM)
NC(=O)NCc1cnc(-c2ccc(NCC3(c4ncccc4F)CCC3)nn2)s1	A (A=<1 uM)
